Record form. Attribute: hemolysis at 1 h, 100 µM. Fill in for each entry.
# procedure.text: Hemolytic activity in human RBC at 100 uM measured after 1 hr by UV-vis absorbance method relative to control
# Type: ADME, cell-based, Erythrocyte
# experimental.conditions: red blood cells (RBC), read-out: Activity
One number for each entry, in %.

chemical.string: O=C(OCc1cn(-c2ccc(Cl)cc2)nn1)c1cn(C2CC2)c2cc(N3CCN(Cc4cn(-c5ccc(Cl)cc5)nn4)CC3)c(F)cc2c1=O
hemolysis at 1 h, 100 µM (%): 4.73

chemical.string: O=C(OCc1cn(-c2ccc(F)cc2F)nn1)c1cn(C2CC2)c2cc(N3CCN(Cc4cn(-c5ccc(F)cc5F)nn4)CC3)c(F)cc2c1=O
hemolysis at 1 h, 100 µM (%): 9.5

chemical.string: O=C(OCc1cn(-c2ccccc2)nn1)c1cn(C2CC2)c2cc(N3CCN(Cc4cn(-c5ccccc5)nn4)CC3)c(F)cc2c1=O
hemolysis at 1 h, 100 µM (%): 4.65

chemical.string: CCc1ccc(-n2cc(COC(=O)c3cn(C4CC4)c4cc(N5CCN(Cc6cn(-c7ccc(CC)cc7)nn6)CC5)c(F)cc4c3=O)nn2)cc1
hemolysis at 1 h, 100 µM (%): 6.81

chemical.string: O=C(OCc1cn(-c2ccc(F)cc2Cl)nn1)c1cn(C2CC2)c2cc(N3CCN(Cc4cn(-c5ccc(F)cc5Cl)nn4)CC3)c(F)cc2c1=O
hemolysis at 1 h, 100 µM (%): 29.8

chemical.string: O=C(O)c1cn(C2CC2)c2cc(N3CCNCC3)c(F)cc2c1=O
hemolysis at 1 h, 100 µM (%): 5.23

chemical.string: O=C(OCc1cn(-c2ccc(F)c(Cl)c2)nn1)c1cn(C2CC2)c2cc(N3CCN(Cc4cn(-c5ccc(F)c(Cl)c5)nn4)CC3)c(F)cc2c1=O
hemolysis at 1 h, 100 µM (%): 5.36

chemical.string: O=C(OCc1cn(-c2ccc(Br)cc2)nn1)c1cn(C2CC2)c2cc(N3CCN(Cc4cn(-c5ccc(Br)cc5)nn4)CC3)c(F)cc2c1=O
hemolysis at 1 h, 100 µM (%): 1.46

Need hemolysis at 1 h, 100 µM for each of these compounds.
1. CC(=O)c1ccc(-n2cc(COC(=O)c3cn(C4CC4)c4cc(N5CCN(Cc6cn(-c7ccc(C(C)=O)cc7)nn6)CC5)c(F)cc4c3=O)nn2)cc1
2. Cc1cc(C)cc(-n2cc(COC(=O)c3cn(C4CC4)c4cc(N5CCN(Cc6cn(-c7cc(C)cc(C)c7)nn6)CC5)c(F)cc4c3=O)nn2)c1
3. O=C(OCc1cn(-c2cccc(Cl)c2Cl)nn1)c1cn(C2CC2)c2cc(N3CCN(Cc4cn(-c5cccc(Cl)c5Cl)nn4)CC3)c(F)cc2c1=O
4. C#CCOC(=O)c1cn(C2CC2)c2cc(N3CCN(CC#C)CC3)c(F)cc2c1=O

Resp:
[8.05, 8.79, 6.58, 4.57]

Need hemolysis at 1 h, 100 µM for each of these compounds.
1. O=C(OCc1cn(-c2ccc(OC(F)(F)F)cc2)nn1)c1cn(C2CC2)c2cc(N3CCN(Cc4cn(-c5ccc(OC(F)(F)F)cc5)nn4)CC3)c(F)cc2c1=O
2. COc1ccccc1-n1cc(COC(=O)c2cn(C3CC3)c3cc(N4CCN(Cc5cn(-c6ccccc6OC)nn5)CC4)c(F)cc3c2=O)nn1

Resp:
1: 9.75; 2: 7.65

The values you see were collected from ChEMBL document CHEMBL3875147.
